Values compiled from PubChem BioAssay (NCI).

Give measured growth for each item. Keep answers brief.
# Test system: U251 CNS
# ASSAY DETAILS: NCI-60 one-dose screen, 48 h (100 = growth as untreated, 0 = no growth, -100 = all killed)
# COND: 10 µM unless noted
This is part of a sample that, as a whole, favours compounds with a hit. Of some 83,000 tested, about 20% had one in any assay.
One number for each entry, in %.

Consider the reported growth for these compounds:
Cc1nn(-c2ccccc2)nc1C(=O)Nc1ccccc1C(=O)NCC1CC1
73.3
CC1(c2ccc3ccccc3c2)CCC(=O)O1 (configuration not stated)
99.9
N#C/C(=C1C=C/C(=N/O)C(Br)=C/1)c1ccccc1
26.5
Oc1ccccc1C=NCC1CCC(CN=Cc2ccccc2O)CC1 (configuration not stated)
78.4

Hi! Can you tell me growth for each of these compounds?
1. CC(O)Cn1cnc2c1c(=O)n(C)c(=O)n2C (configuration not stated)
2. COc1ccc(Cn2c(NCCN=C(N)N)nc(=O)n(Cc3ccc(F)cc3)c2=O)cc1
3. c1ccc(N(c2ccccc2)c2ccccc2)cc1

81.8
81.7
102
